- test system: Stromelysin-1 (Homo sapiens, UniProt P08254)
- Sequence (P08254 whole entry): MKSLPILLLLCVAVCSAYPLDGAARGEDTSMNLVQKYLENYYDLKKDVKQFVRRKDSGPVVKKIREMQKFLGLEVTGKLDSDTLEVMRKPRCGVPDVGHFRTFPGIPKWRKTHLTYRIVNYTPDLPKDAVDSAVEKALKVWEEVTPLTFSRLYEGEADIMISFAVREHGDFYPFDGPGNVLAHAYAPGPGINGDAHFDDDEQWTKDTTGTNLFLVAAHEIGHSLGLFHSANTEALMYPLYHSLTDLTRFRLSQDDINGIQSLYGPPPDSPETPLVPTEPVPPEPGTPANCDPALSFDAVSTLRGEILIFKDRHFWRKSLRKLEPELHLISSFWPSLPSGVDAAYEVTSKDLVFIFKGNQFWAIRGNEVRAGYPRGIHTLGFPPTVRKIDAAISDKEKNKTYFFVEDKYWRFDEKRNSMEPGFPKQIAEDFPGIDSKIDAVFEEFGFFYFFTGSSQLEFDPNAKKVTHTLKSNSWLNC
- test: In vitro inhibitory activity against human recombinant matrix metalloprotease 3
pIC50: −log10 of the molar value.
endpoint: pIC50

Reference set (3 entries):
| molecule | test system | pIC50 |
| --- | --- | --- |
| CNC(=O)[C@@H]1Cc2ccc(cc2)OCCCC[C@H](C(=O)NO)[C@@H](CC(C)C)C(=O)N1 | Stromelysin-1 (Homo sapiens, UniProt P08254) | 8.40 |
| CC(C)C[C@H]1C(=O)N[C@H](C(=O)c2ccc(CO)cc2)Cc2ccc(cc2)OCCCC[C@@H]1C(=O)NO | Stromelysin-1 (Homo sapiens, UniProt P08254) | 8.47 |
| C=CCC(C(=O)NO)C(CC(C)C)C(=O)N[C@@H](Cc1ccccc1)C(=O)c1cccs1 (single isomer, unassigned) | Stromelysin-1 (Homo sapiens, UniProt P08254) | 8.49 |

[1] CC(C)C[C@H]1C(=O)N[C@H](C(=O)c2c[nH]c3ccccc23)Cc2ccc(cc2)OCCCCC[C@@H]1C(=O)NO
[2] CC(C)C[C@H]1C(=O)N[C@H](C(=O)c2ccc(C(C)(C)C)cc2)Cc2ccc(cc2)OCCCC[C@@H]1C(=O)NO
[3] CC(C)C[C@H]1C(=O)N[C@H](C(=O)c2ccccc2)Cc2ccc(cc2)OCCCC[C@@H]1C(=O)NO
[4] CNC(=O)[C@@H]1Cc2ccc(cc2)OCCCCC[C@H](C(=O)NO)[C@@H](CC(C)C)C(=O)N1
Please order the records by their reported pIC50, lowest number first. I would appreciate it if you listed the labels in the requested order.
2, 3, 1, 4
(2: 6.96, 3: 8.05, 1: 8.29, 4: 8.59)

* * *

- test system: Stromelysin-1 (Homo sapiens)
- test: Inhibition of human recombinant matrix metalloprotease 3 (MMP3)
endpoint: pIC50
Please report pIC50 as the negative decimal logarithm of the molar concentration, giving only the number.

May I ask what pIC50 has been recorded for C=CCC(C(=O)NO)C(CC(C)C)C(=O)N[C@@H](Cc1ccccc1)C(=O)c1nccs1 (single isomer, unassigned) ?
6.44

* * *

- test: Bioavailability in monkey after po administration of 10 mg/kg dose
- Format: ADME, organism-based
- setup conditions: primates, in vivo
endpoint: bioavailability (%)
Dear colleague, please return just the value in %, with no unit written.

May I ask what bioavailability has been recorded for C=CCC(C(=O)NO)C(CC(C)C)C(=O)N[C@@H](Cc1ccccc1)C(=O)c1c[nH]c2ccccc12 (single isomer, unassigned) ?
12

* * *

- test system: UniProt P09237
- Sequence (P09237 whole entry): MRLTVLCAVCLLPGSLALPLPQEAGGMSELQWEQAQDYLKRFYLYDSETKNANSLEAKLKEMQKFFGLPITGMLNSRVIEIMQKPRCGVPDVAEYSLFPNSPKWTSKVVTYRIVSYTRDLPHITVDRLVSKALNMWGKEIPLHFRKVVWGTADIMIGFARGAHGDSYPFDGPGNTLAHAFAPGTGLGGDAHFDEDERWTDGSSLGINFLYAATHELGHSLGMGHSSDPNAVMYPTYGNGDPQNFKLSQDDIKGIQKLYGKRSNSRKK
- test: In vitro inhibitory activity against human recombinant matrix metalloprotease 7
endpoint: IC50 (nM)

Reference set (5 entries):
| molecule | endpoint | experimental value |
| --- | --- | --- |
| C=CCC(C(=O)NO)C(CC(C)C)C(=O)N[C@@H](Cc1ccccc1)C(=O)c1nccs1 (single isomer, unassigned) | IC50 | 220 |
| CC(C)C[C@H]1C(=O)N[C@H](C(=O)c2ccc(S(C)(=O)=O)cc2)Cc2ccc(cc2)OCCCC[C@@H]1C(=O)NO | IC50 | 5.7 |
| CC(C)C[C@H]1C(=O)N[C@H](C(=O)c2ccccc2)Cc2ccc(cc2)OCCCCC[C@@H]1C(=O)NO | IC50 | 2.2 |
| C=CCC(C(=O)NO)C(CC(C)C)C(=O)N[C@@H](Cc1ccccc1)C(=O)c1cccnc1 (single isomer, unassigned) | IC50 | 8.6 |
| C=CCC(C(=O)NO)C(CC(C)C)C(=O)N[C@@H](Cc1ccccc1)C(=O)c1cccs1 (single isomer, unassigned) | IC50 | 13 |

[a] CC(C)C[C@H](CC(=O)NO)C(=O)N[C@@H](Cc1ccccc1)C(=O)c1c[nH]c2ccccc12
[b] C=CCC(C(=O)NO)C(CC(C)C)C(=O)N[C@@H](Cc1ccccc1)C(=O)c1nc2ccccc2[nH]1 (single isomer, unassigned)
Of the two listed items, a and b , which carries the larger IC50 figure? // return label of chosen record
b
(b: 68 nM, a: 4.3 nM)

* * *

- test system: Stromelysin-1 (Homo sapiens)
- test: In vitro inhibitory activity against human recombinant matrix metalloprotease 3
pIC50: −log10 of the molar value.
endpoint: pIC50

Reference set (2 entries):
| molecule | experimental value |
| --- | --- |
| C=CCC(C(=O)NO)C(CC(C)C)C(=O)N[C@@H](Cc1ccccc1)C(=O)c1ncco1 (single isomer, unassigned) | 8.74 |
| CC(C)C[C@H]1C(=O)N[C@H](C(=O)c2ccc[nH]2)Cc2ccc(cc2)OCCCC[C@@H]1C(=O)NO | 8.14 |

[1] C=CCC(C(=O)NO)C(CC(C)C)C(=O)N[C@@H](Cc1ccccc1)C(=O)c1nc2ccccc2[nH]1 (single isomer, unassigned)
[2] C=CCC(C(=O)NO)C(CC(C)C)C(=O)N[C@@H](Cc1ccccc1)C(=O)c1cccnc1 (single isomer, unassigned)
Of the two listed items, 1 and 2 , which carries the larger pIC50 figure? // return label of chosen record
2

* * *

- test system: Interstitial collagenase (Homo sapiens)
- Sequence (P03956 whole entry): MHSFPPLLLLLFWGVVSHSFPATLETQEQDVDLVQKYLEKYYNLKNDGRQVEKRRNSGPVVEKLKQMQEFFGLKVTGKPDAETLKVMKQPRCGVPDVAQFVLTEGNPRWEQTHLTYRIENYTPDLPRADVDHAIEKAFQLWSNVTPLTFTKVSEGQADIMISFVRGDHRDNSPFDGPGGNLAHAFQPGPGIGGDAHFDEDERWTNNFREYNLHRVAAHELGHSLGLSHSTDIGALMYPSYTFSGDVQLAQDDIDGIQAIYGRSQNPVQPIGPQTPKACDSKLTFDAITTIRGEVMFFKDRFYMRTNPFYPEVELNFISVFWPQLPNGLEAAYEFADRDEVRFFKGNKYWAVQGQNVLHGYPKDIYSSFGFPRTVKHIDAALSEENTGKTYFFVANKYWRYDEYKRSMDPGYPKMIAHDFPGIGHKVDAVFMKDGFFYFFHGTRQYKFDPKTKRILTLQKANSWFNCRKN
- test: In vitro inhibitory activity against matrix metalloprotease 1 isolated from the culture medium of human skin fibroblasts induced with PMA
endpoint: IC50 (nM)

Reference set (3 entries):
| compound | endpoint | experimental value |
| --- | --- | --- |
| CC(C)C[C@H]1C(=O)N[C@H](C(=O)c2ccccc2)Cc2ccc(cc2)OCCCC[C@@H]1C(=O)NO | IC50 | 13 |
| C=CCC(C(=O)NO)C(CC(C)C)C(=O)N[C@@H](Cc1ccccc1)C(=O)c1ccccc1 (single isomer, unassigned) | IC50 | 10 |
| C=CCC(C(=O)NO)C(CC(C)C)C(=O)N[C@@H](Cc1ccccc1)C(=O)c1cc[nH]c1 (single isomer, unassigned) | IC50 | 6.2 |

[1] CC(C)C[C@H]1C(=O)N[C@H](C(=O)c2ccccc2)Cc2ccc(cc2)OCCCCC[C@@H]1C(=O)NO
[2] C=CCC(C(=O)NO)C(CC(C)C)C(=O)N[C@@H](Cc1ccccc1)C(=O)c1cccnc1 (single isomer, unassigned)
Of the two listed items, 1 and 2 , which carries the larger IC50 figure? // return label of chosen record
2
(2: 14 nM, 1: 9.1 nM)

* * *

- test system: 72 kDa type IV collagenase (Homo sapiens, UniProt P08253)
- Sequence (P08253 whole entry): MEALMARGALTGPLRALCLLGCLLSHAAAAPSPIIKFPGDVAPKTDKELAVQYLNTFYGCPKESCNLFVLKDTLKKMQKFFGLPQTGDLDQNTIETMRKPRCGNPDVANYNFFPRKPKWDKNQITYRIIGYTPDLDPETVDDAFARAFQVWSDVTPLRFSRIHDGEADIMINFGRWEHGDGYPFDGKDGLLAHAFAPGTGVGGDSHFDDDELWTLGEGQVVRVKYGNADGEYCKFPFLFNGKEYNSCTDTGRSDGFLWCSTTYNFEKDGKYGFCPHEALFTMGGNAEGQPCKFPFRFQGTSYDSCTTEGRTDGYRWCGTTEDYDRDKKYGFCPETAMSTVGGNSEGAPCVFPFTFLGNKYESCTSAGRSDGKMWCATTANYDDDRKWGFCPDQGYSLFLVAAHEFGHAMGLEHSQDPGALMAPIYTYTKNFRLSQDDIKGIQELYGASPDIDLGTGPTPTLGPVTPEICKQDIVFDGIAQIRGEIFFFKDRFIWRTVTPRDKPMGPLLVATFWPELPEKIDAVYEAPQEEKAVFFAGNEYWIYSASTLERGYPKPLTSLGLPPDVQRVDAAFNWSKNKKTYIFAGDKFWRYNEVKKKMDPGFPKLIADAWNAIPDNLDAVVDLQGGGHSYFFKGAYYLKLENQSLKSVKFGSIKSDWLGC
- test: In vitro inhibitory activity against matrix metalloprotease 2 isolated from human HT1080 fibrosarcoma cells induced with TNF
pIC50: −log10 of the molar value.
endpoint: pIC50

| compound | test system | pIC50 |
| --- | --- | --- |
| CC(C)C[C@H]1C(=O)N[C@H](C(=O)c2c[nH]c3ccccc23)Cc2ccc(cc2)OCCCCC[C@@H]1C(=O)NO | 72 kDa type IV collagenase (Homo sapiens, UniProt P08253) | 8.21 |
| CC(C)C[C@H]1C(=O)N[C@H](C(=O)c2ccc[nH]2)Cc2ccc(cc2)OCCCC[C@@H]1C(=O)NO | 72 kDa type IV collagenase (Homo sapiens, UniProt P08253) | 8.14 |
| C=CCC(C(=O)NO)C(CC(C)C)C(=O)N[C@@H](Cc1ccccc1)C(=O)c1ncco1 (single isomer, unassigned) | 72 kDa type IV collagenase (Homo sapiens, UniProt P08253) | 8.14 |
| C=CCC(C(=O)NO)C(CC(C)C)C(=O)N[C@@H](Cc1ccccc1)C(=O)c1cccs1 (single isomer, unassigned) | 72 kDa type IV collagenase (Homo sapiens, UniProt P08253) | 8.19 |
| C=CCC(C(=O)NO)C(CC(C)C)C(=O)N[C@@H](Cc1ccccc1)C(=O)c1cccnc1 (single isomer, unassigned) | 72 kDa type IV collagenase (Homo sapiens, UniProt P08253) | 8.07 |
| CC(C)C[C@H]1C(=O)N[C@H](C(=O)c2ccccc2)Cc2ccc(cc2)OCCCC[C@@H]1C(=O)NO | 72 kDa type IV collagenase (Homo sapiens, UniProt P08253) | 8.02 |
| CC(C)C[C@H]1C(=O)N[C@H](C(=O)c2ccc(S(C)(=O)=O)cc2)Cc2ccc(cc2)OCCCC[C@@H]1C(=O)NO | 72 kDa type IV collagenase (Homo sapiens, UniProt P08253) | 8.07 |

Values from ChEMBL document CHEMBL1130676
